Procedure summary: Inhibition of Mycobacterium tuberculosis DNA gyrase GyrA A83S mutant/GyrB R447K mutant gene
Endpoint name: IC50

[[record]]
molecule = "CCn1cc(C(=O)O)c(=O)c2ccc(C)nc21 [NALIDIXIC ACID]"
test_result = "850 µM"

[[record]]
molecule = "CC1COc2c(N3CCN(C)CC3)c(F)cc3c(=O)c(C(=O)O)cn1c23 (stereo not drawn) [OFLOXACIN]"
test_result = "4 µM"

[[record]]
molecule = "CCn1cc(C(=O)O)c(=O)c2cc(F)c(N3CCNCC3)nc21 [ENOXACIN]"
test_result = "19 µM"


====

Procedure summary: Inhibition of Mycobacterium tuberculosis DNA gyrase GyrA/GyrB N464S mutant gene
pIC50: −log10 of the molar value.
Endpoint name: pIC50

[[record]]
compound = "COc1c(N2C[C@@H]3CCCN[C@@H]3C2)c(F)cc2c(=O)c(C(=O)O)cn(C3CC3)c12"
test_result = 5.15

[[record]]
compound = "CC1COc2c(N3CCN(C)CC3)c(F)cc3c(=O)c(C(=O)O)cn1c23 (stereo not drawn)"
test_result = 4.70

[[record]]
compound = "CCn1cc(C(=O)O)c(=O)c2ccc(C)nc21"
test_result = 2.39

